# TARGET_OR_SYSTEM: Metabotropic glutamate receptor 2 (Homo sapiens, UniProt Q14416)
# Sequence (Q14416 whole entry): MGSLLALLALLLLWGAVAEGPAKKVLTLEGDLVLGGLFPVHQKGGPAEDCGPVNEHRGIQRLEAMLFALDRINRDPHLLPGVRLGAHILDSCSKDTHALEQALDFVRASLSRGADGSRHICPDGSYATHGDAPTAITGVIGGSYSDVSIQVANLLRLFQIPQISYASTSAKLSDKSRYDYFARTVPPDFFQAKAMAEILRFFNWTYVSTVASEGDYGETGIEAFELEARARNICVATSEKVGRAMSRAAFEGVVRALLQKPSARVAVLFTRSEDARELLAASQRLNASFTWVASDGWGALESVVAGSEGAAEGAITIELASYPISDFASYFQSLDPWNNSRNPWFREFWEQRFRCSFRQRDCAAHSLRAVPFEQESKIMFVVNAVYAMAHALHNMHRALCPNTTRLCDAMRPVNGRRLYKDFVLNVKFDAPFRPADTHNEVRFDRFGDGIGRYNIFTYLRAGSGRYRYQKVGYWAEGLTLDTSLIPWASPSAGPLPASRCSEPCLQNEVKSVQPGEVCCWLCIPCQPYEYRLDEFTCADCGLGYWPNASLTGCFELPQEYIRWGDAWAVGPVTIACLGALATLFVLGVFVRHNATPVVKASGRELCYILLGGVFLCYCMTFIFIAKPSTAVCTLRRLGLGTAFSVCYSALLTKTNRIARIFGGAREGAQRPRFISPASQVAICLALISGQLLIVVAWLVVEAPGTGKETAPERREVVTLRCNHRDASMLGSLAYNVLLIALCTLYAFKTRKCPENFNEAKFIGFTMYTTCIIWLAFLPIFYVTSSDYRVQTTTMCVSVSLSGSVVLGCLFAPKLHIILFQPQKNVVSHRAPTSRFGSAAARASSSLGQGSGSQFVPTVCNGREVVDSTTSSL
# EXPERIMENTAL_PROTOCOL: Displacement of [3H]LY341495 from full length human recombinant mGluR2 expressed in Chem-1 cells incubated for 60 mins by radiometric scintillation counting analysis
PROPERTY_NAME: IC50

Q: Answer with reported IC50 of "O=C1CCSC[C@@H](C(=O)Nc2cc(Cl)cc(Br)c2)N1"
Ans: > 10 µM

====

Could you please report measured pEC50 for the items listed next?
# TARGET_OR_SYSTEM: Metabotropic glutamate receptor 4 (Rattus norvegicus, UniProt P31423)
# Sequence (P31423 whole entry): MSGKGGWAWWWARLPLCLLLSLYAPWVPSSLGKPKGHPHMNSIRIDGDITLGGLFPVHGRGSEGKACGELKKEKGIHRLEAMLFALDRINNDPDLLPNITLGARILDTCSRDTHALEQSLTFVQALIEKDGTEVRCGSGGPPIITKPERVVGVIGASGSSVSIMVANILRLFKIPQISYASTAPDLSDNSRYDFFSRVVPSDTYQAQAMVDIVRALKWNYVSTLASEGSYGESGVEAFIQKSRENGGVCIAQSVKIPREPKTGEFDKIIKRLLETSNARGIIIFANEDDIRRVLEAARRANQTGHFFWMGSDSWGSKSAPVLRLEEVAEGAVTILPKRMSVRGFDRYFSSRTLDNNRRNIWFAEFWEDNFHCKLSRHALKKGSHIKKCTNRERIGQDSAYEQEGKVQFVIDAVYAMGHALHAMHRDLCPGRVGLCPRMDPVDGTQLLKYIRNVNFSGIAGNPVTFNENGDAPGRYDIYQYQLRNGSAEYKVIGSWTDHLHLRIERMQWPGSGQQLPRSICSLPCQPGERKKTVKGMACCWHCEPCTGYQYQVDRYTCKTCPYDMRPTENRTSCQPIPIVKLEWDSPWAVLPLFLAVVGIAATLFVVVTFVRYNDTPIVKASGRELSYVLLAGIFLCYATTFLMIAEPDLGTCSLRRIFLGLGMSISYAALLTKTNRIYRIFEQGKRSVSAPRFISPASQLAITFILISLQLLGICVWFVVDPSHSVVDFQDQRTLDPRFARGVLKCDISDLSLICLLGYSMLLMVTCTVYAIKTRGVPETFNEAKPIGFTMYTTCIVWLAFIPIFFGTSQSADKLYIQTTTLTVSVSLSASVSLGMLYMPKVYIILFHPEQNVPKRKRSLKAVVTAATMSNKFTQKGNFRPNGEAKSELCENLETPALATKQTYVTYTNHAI
# EXPERIMENTAL_PROTOCOL: Positive allosteric modulation of rat mGlu4 receptor expressed in HEK293 cells co- expressing GIRK channel by thallium mobilization assay
Reminder that pEC50 is minus the log10 of a molar concentration.

Q: Answer with reported pEC50 of "O=C1CCSC[C@@H](C(=O)Nc2cc(F)cc(I)c2)N1"
Ans: 6.25

Q: Answer with reported pEC50 of "O=C1CCSC[C@@H](C(=O)Nc2cc(Br)cc(Br)c2)N1"
Ans: 7.46

Q: Answer with reported pEC50 of "O=C1CCSC[C@@H](C(=O)Nc2cc(Br)cc(I)c2)N1"
Ans: 6.94

Q: Answer with reported pEC50 of "O=C1CCSC[C@@H](C(=O)Nc2cccc(Br)c2)N1"
Ans: 5.21

Q: Answer with reported pEC50 of "O=C1CCSC[C@@H](C(=O)Nc2cc(F)cc(Cl)c2)N1"
Ans: 6.56

Q: Answer with reported pEC50 of "O=C1CCSC[C@H](C(=O)Nc2cc(Cl)cc(Br)c2)N1"
Ans: 7.19

Q: Answer with reported pEC50 of "O=C1CCSC[C@@H](C(=O)Nc2cccc(Cl)c2)N1"
Ans: 6.83

Q: Answer with reported pEC50 of "O=C1CCSC[C@@H](C(=O)Nc2cc(C(F)(F)F)cc(C(F)(F)F)c2)N1"
Ans: 6.02

Q: Answer with reported pEC50 of "Cc1cc(Cl)cc(NC(=O)[C@@H]2CSCCC(=O)N2)c1"
Ans: 5.96

Q: Answer with reported pEC50 of "O=C1CCSC[C@@H](C(=O)Nc2cc(F)cc(F)c2)N1"
Ans: 5.05

Q: Answer with reported pEC50 of "O=C1CCSC[C@@H](C(=O)Nc2cc(F)cc(Br)c2)N1"
Ans: 6.45

Q: Answer with reported pEC50 of "O=C1CCSC[C@@H](C(=O)Nc2cc(Cl)cc(Cl)c2)N1"
Ans: 6.56

Q: Answer with reported pEC50 of "O=C1CCSC[C@@H](C(=O)Nc2cc(Cl)cc(Br)c2)N1"
Ans: 7.48

Q: Answer with reported pEC50 of "O=C1CCSC[C@H](C(=O)Nc2cc(Br)cc(Br)c2)N1"
Ans: 7.12

====

# EXPERIMENTAL_PROTOCOL: Protein binding in rat plasma assessed as unbound fraction
# Assay type: ADME, cell-free
PROPERTY_NAME: fraction unbound
A bare number is all that is needed in reply.

Q: Answer with reported fraction unbound of "O=C1CCSC[C@@H](C(=O)Nc2cc(Br)cc(Br)c2)N1"
Ans: 0.011

Q: Answer with reported fraction unbound of "O=C1CCSC[C@@H](C(=O)Nc2cc(Cl)cc(Br)c2)N1"
Ans: 0.018

Q: Answer with reported fraction unbound of "O=C1CCSC[C@@H](C(=O)Nc2cccc(Cl)c2)N1"
Ans: 0.02
